tested on: Orobanche cumana Wallr. seeds; assay: Germination of preconditioned Orobanche cumana seeds on glass fiber filter paper in petri dishes; assay type: in vivo; settings: Table B2; concentration 0.1 mg 1^−1; mean, N = 5 × 100 seeds; seed lot IN153; DMSO control 2.4% germination
experimentalReadout: Germination (%)
Answers are plain numbers, in %.

Example results:
[[record]]
compound = "CC1=C[C@H](O/C=C2/C(=O)O[C@@H]3c4ccccc4C[C@H]23)OC1=O (mixture of isomers) [GR-24, reference compound]"
measuredon = "Orobanche cumana Wallr. seeds"
experimentalreadout = "Germination (%)"
quantitativereadout = 46.4

[[record]]
compound = "CC1=CC(O/C=C2\\CC(=O)N(C)C2=O)OC1=O (stereo not shown)"
measuredon = "Orobanche cumana Wallr. seeds"
experimentalreadout = "Germination (%)"
quantitativereadout = 1.4

[[record]]
compound = "CC1=CC(O/C=C2\\CCCN(c3ccccc3)C2=O)OC1=O (stereo not shown)"
measuredon = "Orobanche cumana Wallr. seeds"
experimentalreadout = "Germination (%)"
quantitativereadout = 0

[[record]]
compound = "CC1=CC(O/C=C2\\CCN(C(=O)OC(C)(C)C)C2=O)OC1=O (stereo not shown)"
measuredon = "Orobanche cumana Wallr. seeds"
experimentalreadout = "Germination (%)"
quantitativereadout = 2.8

[[record]]
compound = "CC1=CC(O/C=C2\\CCN(c3ccccc3)C2=O)OC1=O (stereo not shown)"
measuredon = "Orobanche cumana Wallr. seeds"
experimentalreadout = "Germination (%)"
quantitativereadout = 1.6


Batch lookup, Germination (%) per entry.
1. CC1=CC(O/C=C2\CC(C)N(c3ccccc3)C2=O)OC1=O (stereo not shown)
2. CC1=CC(O/C=C2/C(=O)NC3CCCC23)OC1=O (stereo not shown)

Return:
1: 1; 2: 65.4
